src = patent US7517517B2

# SYSTEM_UNDER_TEST: rat mGlu1a receptor (Rattus norvegicus)
# Construct: host or cells: CHO-dhfr- cells
# ASSAY_PROCEDURE: [3H]Compound A binding to rat mGlu1a receptor CHO-dhfr− membranes (saturation, kinetics, inhibition)
# EXPERIMENTAL_CONDITIONS: saturation, 30 min incubation, n=3
EXPERIMENTAL_READOUT: Kd (nM)
Report as a plain number; the unit nM is understood.

Record [3H]c1ccc(CC(=O)c2ccc3nc4c(cc3c2)CCCO4)cc1 [[^3H]Compound A] , field Kd: 0.9

* * *

# SYSTEM_UNDER_TEST: UniProt:P31423
# Sequence (P31423 33-912): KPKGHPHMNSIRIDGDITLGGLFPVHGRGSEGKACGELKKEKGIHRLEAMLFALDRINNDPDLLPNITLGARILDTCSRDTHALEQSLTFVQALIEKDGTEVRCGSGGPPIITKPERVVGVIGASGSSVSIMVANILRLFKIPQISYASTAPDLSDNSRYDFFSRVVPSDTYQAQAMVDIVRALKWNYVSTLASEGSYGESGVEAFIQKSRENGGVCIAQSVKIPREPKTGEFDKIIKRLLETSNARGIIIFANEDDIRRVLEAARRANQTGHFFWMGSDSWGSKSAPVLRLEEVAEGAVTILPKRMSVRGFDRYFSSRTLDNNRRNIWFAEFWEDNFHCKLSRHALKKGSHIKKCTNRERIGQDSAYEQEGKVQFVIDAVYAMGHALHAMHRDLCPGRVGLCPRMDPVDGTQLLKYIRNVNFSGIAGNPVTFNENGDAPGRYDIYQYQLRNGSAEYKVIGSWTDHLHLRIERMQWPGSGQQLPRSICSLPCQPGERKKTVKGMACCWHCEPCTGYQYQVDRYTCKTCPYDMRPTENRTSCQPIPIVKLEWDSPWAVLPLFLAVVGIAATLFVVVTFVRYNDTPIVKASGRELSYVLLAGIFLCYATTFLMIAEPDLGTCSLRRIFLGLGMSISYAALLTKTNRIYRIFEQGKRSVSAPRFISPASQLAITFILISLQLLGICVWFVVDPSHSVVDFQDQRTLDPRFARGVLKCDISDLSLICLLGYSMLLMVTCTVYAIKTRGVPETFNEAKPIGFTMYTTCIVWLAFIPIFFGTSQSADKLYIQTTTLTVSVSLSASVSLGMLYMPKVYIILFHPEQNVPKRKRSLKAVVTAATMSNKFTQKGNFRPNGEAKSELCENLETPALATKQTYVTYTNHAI
# ASSAY_PROCEDURE: [35S]GTPγS binding to membranes from CHO-dhfr− cells expressing the rat mGlu4 receptor
# EXPERIMENTAL_CONDITIONS: read-out: IC50 for inhibition of glutamate-induced [35S]GTPγS activation
# Protocol: Confluent cells were washed in ice-cold phosphate-buffered saline and stored at −20° C. until membrane preparation. After thawing, cells were suspended in 50 mM Tris-HCl, pH 7.4 and collected through centrifugation for 10 min at 23,500 g at 4° C. The cells were lysed in 10 mM hypotonic Tris-HCl, pH 7.4. […] Protein concentrations were measured by the Bio-Rad protein assay using bovine serum albumin as standard. […]
EXPERIMENTAL_READOUT: IC50

Record O=C(Cc1ccccc1)c1ccc2nc3c(cc2c1)CCCO3 [Compound A] , field IC50: > 30 µM

* * *

# SYSTEM_UNDER_TEST: rat mGlu1a receptor (Rattus norvegicus)
# Construct: host or cells: CHO-dhfr- cells
# ASSAY_PROCEDURE: Intracellular Ca2+ response in rat mGlu1a receptor expressing CHO-dhfr− cells (FLIPR)
# Assay type: cell-based
# EXPERIMENTAL_CONDITIONS: read-out: IC50, inhibition of the glutamate-induced increase in [Ca2+]i
EXPERIMENTAL_READOUT: pIC50
Please keep in mind that pIC50 is minus log10 of the molar concentration; only the number is needed.

Tested on rat mGlu1a receptor (Rattus norvegicus), the item "O=C(Cc1ccccc1)c1ccc2nc3c(cc2c1)CCCO3" showed pIC50 equal to 7.67

* * *

Where a name gives a salt, the structure may show the parent alone.
Record form. Attribute: melting point. Fill in for each entry.
Report as a plain number; the unit °C is understood.

Record [3H]c1ccc(CC(=O)c2ccc3nc4c(cc3c2)CCCO4)cc1 [[^3H]Compound A] , field melting point: 195

Record CCc1cc2cc(C(=O)C3CCC(OC)CC3)ccc2nc1C (stereo not shown) , field melting point: 110

Record "Cc1cc2cc(C(=O)C3CCCCC3)ccc2[nH]c1=O" , field melting point: 256.1

Record "CCOC(=O)c1cc2cc(C(=O)Cc3ccccc3)ccc2nc1C" , field melting point: 136

Record "CCc1cc2cc(C(=O)[C@H]3CC[C@@H](OC)CC3)ccc2nc1I" , field melting point: 110

Record CCc1cc2cc(/C(=N\N)C3CCC(OC)CC3)ccc2nc1OC (stereo not shown) , field melting point: 110

Record "CCc1cc2cc(C(=O)[C@H]3CC[C@H](OC)CC3)ccc2nc1F" , field melting point: 114

Record CCc1cnc2ccc(C(=O)C3CCC(OC)CC3)cc2c1 (stereo not shown) , field melting point: 88

Record CCc1cc2cc(C(=O)C3CCC(OC)CC3)ccc2[nH]c1=O (stereo not shown) , field melting point: 226

Record "CCc1cc2cc(C(=O)[C@H]3CC[C@@H](OC)CC3)ccc2nc1C#N" , field melting point: 138

Record "CCc1cc2cc(/C=C/c3ccccc3)ccc2nc1C" , field melting point: 140

Record CCc1cc2cc(C(=O)C3CCC(OC)CC3)ccc2nc1-c1ccccc1 (stereo not shown) , field melting point: 112

Record CCc1cc2cc(-c3cc4c(o3)CCCC4)ccc2nc1C (as salt: HCl) , field melting point: 248

Record "CCc1cc2cc(C(=O)[C@H]3CC[C@@H](OC)CC3)ccc2nc1NCCOC" , field melting point: 115

Record "CCc1cc2cc(-c3cc4ccccc4o3)ccc2nc1C" , field melting point: 134

Record CCc1cc2cc(C(=O)C3CCC(OC)CC3)ccc2nc1F (stereo not shown) , field melting point: 92

Record "CCc1cc2cc(C(=O)[C@H]3CC[C@@H](OC)CC3)ccc2nc1Cl" , field melting point: 123

Record CCc1cc2cc(C(=O)C3CCC(OC)CC3)ccc2nc1-c1cccs1 (stereo not shown) , field melting point: 142

Record C=Cc1nc2ccc(C(=O)C3CCC(OC)CC3)cc2cc1CC (stereo not shown) , field melting point: 108

* * *

# SYSTEM_UNDER_TEST: rat mGlu1a receptor (Rattus norvegicus, UniProt P23385)
# Construct: host or cells: CHO-dhfr- cells
# Sequence (P23385 19-1199): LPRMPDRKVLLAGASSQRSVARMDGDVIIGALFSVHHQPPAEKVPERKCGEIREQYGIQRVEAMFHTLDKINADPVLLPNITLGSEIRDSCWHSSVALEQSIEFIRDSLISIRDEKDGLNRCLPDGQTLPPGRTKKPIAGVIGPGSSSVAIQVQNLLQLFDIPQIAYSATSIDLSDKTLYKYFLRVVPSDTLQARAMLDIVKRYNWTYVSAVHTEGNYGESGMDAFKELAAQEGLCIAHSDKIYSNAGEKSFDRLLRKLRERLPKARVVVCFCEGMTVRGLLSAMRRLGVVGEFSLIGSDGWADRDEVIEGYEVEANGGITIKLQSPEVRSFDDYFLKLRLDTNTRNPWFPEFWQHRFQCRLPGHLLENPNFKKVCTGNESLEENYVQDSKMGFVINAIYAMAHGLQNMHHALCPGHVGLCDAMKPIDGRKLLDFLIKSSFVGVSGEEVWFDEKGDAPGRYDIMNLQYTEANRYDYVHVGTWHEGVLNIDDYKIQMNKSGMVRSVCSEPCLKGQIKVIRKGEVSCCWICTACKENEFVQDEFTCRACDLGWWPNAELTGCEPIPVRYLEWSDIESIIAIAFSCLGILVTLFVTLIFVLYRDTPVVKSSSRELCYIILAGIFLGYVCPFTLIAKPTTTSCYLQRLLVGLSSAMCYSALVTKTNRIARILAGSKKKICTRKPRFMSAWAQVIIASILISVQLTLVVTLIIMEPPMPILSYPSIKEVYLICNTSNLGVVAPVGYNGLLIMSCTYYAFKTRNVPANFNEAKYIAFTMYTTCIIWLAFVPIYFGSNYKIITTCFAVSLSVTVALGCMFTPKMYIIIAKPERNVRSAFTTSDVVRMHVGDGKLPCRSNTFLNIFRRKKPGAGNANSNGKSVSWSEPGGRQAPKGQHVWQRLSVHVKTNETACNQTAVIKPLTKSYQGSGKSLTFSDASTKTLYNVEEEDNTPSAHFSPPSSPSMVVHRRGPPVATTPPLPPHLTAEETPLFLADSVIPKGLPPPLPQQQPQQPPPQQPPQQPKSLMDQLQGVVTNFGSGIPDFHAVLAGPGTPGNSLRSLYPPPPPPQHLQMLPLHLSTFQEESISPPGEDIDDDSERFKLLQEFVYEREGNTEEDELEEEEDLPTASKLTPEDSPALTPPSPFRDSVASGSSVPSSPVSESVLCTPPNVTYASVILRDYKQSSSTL
# ASSAY_PROCEDURE: [3H]Compound A binding to rat mGlu1a receptor CHO-dhfr− membranes (saturation, kinetics, inhibition)
# EXPERIMENTAL_CONDITIONS: [3H]Compound A saturation binding, control (absence of antagonist); mean ± SD, 3 experiments
EXPERIMENTAL_READOUT: pKd
Please keep in mind that pKd is minus log10 of the molar concentration; only the number is needed.

Record [3H]c1ccc(CC(=O)c2ccc3nc4c(cc3c2)CCCO4)cc1 [[^3H]Compound A] , field pKd: 9.14

* * *

# SYSTEM_UNDER_TEST: mGlu1 receptor (Rattus norvegicus, UniProt P23385)
# ASSAY_PROCEDURE: [3H]Compound A binding to rat brain membranes (cortex, hippocampus, striatum, cerebellum)
# EXPERIMENTAL_CONDITIONS: membranes from rat cortex; mean ± SD, 3 experiments
EXPERIMENTAL_READOUT: Kd (nM)
Report as a plain number; the unit nM is understood.

Record [3H]c1ccc(CC(=O)c2ccc3nc4c(cc3c2)CCCO4)cc1 [[^3H]Compound A] , field Kd: 1.04

* * *

# SYSTEM_UNDER_TEST: mGlu1 receptor (Rattus norvegicus)
# ASSAY_PROCEDURE: [3H]Compound A binding to rat brain membranes (cortex, hippocampus, striatum, cerebellum)
# EXPERIMENTAL_CONDITIONS: membranes from rat hippocampus; mean ± SD, 3 experiments
EXPERIMENTAL_READOUT: Kd (nM)
Report as a plain number; the unit nM is understood.

Record [3H]c1ccc(CC(=O)c2ccc3nc4c(cc3c2)CCCO4)cc1 [[^3H]Compound A] , field Kd: 0.72

* * *

# SYSTEM_UNDER_TEST: rat mGlu1a receptor (Rattus norvegicus)
# Construct: host or cells: CHO-dhfr- cells
# ASSAY_PROCEDURE: [3H]Compound A binding to rat mGlu1a receptor CHO-dhfr− membranes (saturation, kinetics, inhibition)
# EXPERIMENTAL_CONDITIONS: [3H]Compound A saturation binding in presence of NPS 2390 (10 nM); mean ± SD, 3 experiments
EXPERIMENTAL_READOUT: pKd
Please keep in mind that pKd is minus log10 of the molar concentration; only the number is needed.

Record [3H]c1ccc(CC(=O)c2ccc3nc4c(cc3c2)CCCO4)cc1 [[^3H]Compound A] , field pKd: 8.54

* * *

# SYSTEM_UNDER_TEST: rat mGlu1a receptor (Rattus norvegicus, UniProt P23385)
# Construct: host or cells: CHO-dhfr- cells
# ASSAY_PROCEDURE: [3H]quisqualate binding to rat mGlu1a receptor CHO-dhfr− membranes (saturation, inhibition)
# EXPERIMENTAL_CONDITIONS: inhibition of [3H]quisqualate binding, rat mGlu1a receptor CHO-dhfr− membranes; mean ± SD of 2 experiments
EXPERIMENTAL_READOUT: Hill coefficient
Reply with just the number.

Record N[C@@]1(C(=O)O)CC[C@@H](C(=O)O)C1 [1S,3R-ACPD, reference compound] , field Hill coefficient: 0.97

Record N[C@H](C(=O)O)c1cc(O)cc(O)c1 [(S)-3,5-DHPG, reference compound] , field Hill coefficient: 0.97

Record N[C@H](C(=O)O)c1ccc(C(=O)O)cc1 [(S)-4CPG, reference compound] , field Hill coefficient: 0.98

Record Cc1cc(C(=O)O)ccc1[C@H](N)C(=O)O [LY367385, reference compound] , field Hill coefficient: 0.99

Record N[C@H](C(=O)O)c1ccc(C(=O)O)c(O)c1 [(S)-4C3HPG] , field Hill coefficient: 0.98

Record N[C@@H](Cn1oc(=O)[nH]c1=O)C(=O)O [quisqualate, reference compound] , field Hill coefficient: 0.98

Record NC1(C(=O)O)CCc2cc(C(=O)O)ccc21 (stereo not shown) [AIDA, reference compound] , field Hill coefficient: 0.98

* * *

# SYSTEM_UNDER_TEST: mGlu1 receptor (Rattus norvegicus, UniProt P23385)
# ASSAY_PROCEDURE: [3H]Compound A binding to rat brain membranes (cortex, hippocampus, striatum, cerebellum)
# EXPERIMENTAL_CONDITIONS: all structures (cortex, hippocampus, striatum, cerebellum)
pKd: −log10 of the molar value.
EXPERIMENTAL_READOUT: pKd

Record [3H]c1ccc(CC(=O)c2ccc3nc4c(cc3c2)CCCO4)cc1 [[^3H]Compound A] , field pKd: ~9.00
